Target: T1, HpRap1B (Hansenula polymorpha DL-1, UniProt W1QDN2 1-576)
T1 sequence: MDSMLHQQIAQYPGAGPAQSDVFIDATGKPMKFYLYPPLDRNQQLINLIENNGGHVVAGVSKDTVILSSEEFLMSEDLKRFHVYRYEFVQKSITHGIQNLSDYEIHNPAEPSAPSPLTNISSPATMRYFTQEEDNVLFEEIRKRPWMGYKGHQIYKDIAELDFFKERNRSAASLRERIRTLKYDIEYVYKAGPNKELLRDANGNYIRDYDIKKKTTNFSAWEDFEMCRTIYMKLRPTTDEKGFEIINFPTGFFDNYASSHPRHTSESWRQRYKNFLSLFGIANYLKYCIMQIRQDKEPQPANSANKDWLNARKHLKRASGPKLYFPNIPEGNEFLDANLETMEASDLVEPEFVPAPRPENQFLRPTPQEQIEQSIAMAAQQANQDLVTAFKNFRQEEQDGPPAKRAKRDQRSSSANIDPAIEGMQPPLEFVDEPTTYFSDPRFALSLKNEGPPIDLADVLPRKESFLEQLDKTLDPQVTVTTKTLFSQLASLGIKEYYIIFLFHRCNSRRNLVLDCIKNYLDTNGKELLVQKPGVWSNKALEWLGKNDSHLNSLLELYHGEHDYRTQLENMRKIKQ
Assay: SPR; kinetic fit; equilibrium Kd 13±3; SPR: 10 mM HEPES-NaOH pH 7.5, 150 mM NaCl, 0.5 mM DTT, 0.05% Tween 20, 1 mg/ml BSA, 0.02 mg/ml salmon sperm DNA; competition 2 nM protein with 20 or 200 nM competitor. EMSA: 20 mM HEPES-NaOH pH 7.5, 50 mM NaCl, 0.2 mg/ml BSA, 5% glycerol, 0.1 mg/ml salmon sperm DNA, room temperature
Conditions: protein: recombinant; 3' overhang 20 nt on strand 2
Measured Quantity: Kd (nM)
Give bare numbers, in nM.

## Task Can you share its Kd? I mean this binder: HANPO4 (SPR) (dsDNA) DNA 1: GGGTGGCGGGGTGGCGGGGTGGCGGGGTGGCG DNA 2: CGCCACCCCGCCACCCCGCCACCCCGCCACCCCCTCTACGTCCTCCTGCTCC
## Result 12
